# assayText: solvent given as SMILES
# particulars: in C1CCOC1
Criterion: emission maximum strictly less than 400 nm. Met: rule met. Not met: rule not met.

>  <compoundStructureString>
Fc1cc(-c2nc(-c3ccccc3)nc(-c3ccccc3)n2)ccc1-n1c2ccccc2c2c3c(ccc21)C1(c2ccccc2-c2ccccc21)c1ccccc1-3

>  <label>
rule not met

$$$$
>  <compoundStructureString>
CC1=NN(c2ccccc2)C(=O)/C1=C/c1cn(-c2ccccc2)nc1-c1ccccc1

>  <label>
rule not met

$$$$
>  <compoundStructureString>
CCCCCCCC(=O)Oc1ccc2c3cccc4c(OC(=O)CCCCCCC)ccc(c5cccc1c52)c43

>  <label>
rule not met

$$$$
>  <compoundStructureString>
O=C1c2cc(-c3ccccc3)ccc2-c2ccc(-c3ccccc3)cc21

>  <label>
rule met

$$$$
>  <compoundStructureString>
CC(C)(C)c1ccc2c(c1)sc1[n+]2[B-](F)(F)n2c(c3cccc4cccc2c43)=N1

>  <label>
rule not met

$$$$
